molecular target: IL16_1, Q14005; assay: holdup assay; design: key: below the threshold = too weak to quantify, mostly under pKd 3.1 to 4; conditions: plain residues with an end cap or a label only (N-terminal biotin on a linker: ado-ado)
Sequence (Q14005 210-306): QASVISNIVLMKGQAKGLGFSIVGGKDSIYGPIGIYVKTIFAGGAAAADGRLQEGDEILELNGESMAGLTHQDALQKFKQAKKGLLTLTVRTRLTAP
measured_quantity: pKd

>>> observed_value("KAEEKPPSKV [SCN4B, Q8IWT1]")
"below the threshold"
>>> observed_value("IQISELETNV [SLC1A7, O00341]")
4.05
>>> observed_value("GNDPDRGTSI [GRID2, O43424]")
"below the threshold"
>>> observed_value("QKASRNESTF [POLR1D, P0DPB6]")
"below the threshold"
>>> observed_value("AKADAQESRL [PLCB2, Q00722]")
3.94
>>> observed_value("PAALPESTHM [SLC9A3, P48764]")
"below the threshold"
>>> observed_value("GTMFLRETSL [GUCY1A2, P33402]")
4.47
>>> observed_value("PDSYHRRDFW [U2AF2, P26368]")
"below the threshold"
